Where do the numbers come from? From the supplement of paper PMC10702517.

- run description: chemical recovery into PDMS from spiked human plasma; higher = better extraction
- condition context: pooled human plasma; extraction method: PES with PDMS; equilibration time (d): 6
parameter: chemical recovery into PDMS (%)
Answers are plain numbers, in %.

Example entries and their recorded answers appear below.
molecule: N#CSCSc1nc2ccccc2s1 [(Benzothiazol-2-ylthio)methyl thiocyanate]
endpoint unit: %
chemical recovery into PDMS: 13.3

molecule: CCNc1ccc2c(C)cc(=O)oc2c1 [7-(Ethylamino)-4-methylcoumarin]
endpoint unit: %
chemical recovery into PDMS: 30.7

molecule: CO/C=C(/C(=O)OC)c1ccccc1COc1cccc(C(F)(F)F)n1
endpoint unit: %
chemical recovery into PDMS: 48.7

Below is a list of molecules. For each, state its recorded chemical recovery into PDMS.
1. CCCCc1oc2ccccc2c1C(=O)c1cc(I)c(OCCN(CC)CC)c(I)c1
2. Cl[C@H]1[C@H](Cl)[C@@H](Cl)[C@H](Cl)[C@@H](Cl)[C@@H]1Cl
3. O=c1ccc2ccccc2[nH]1 [2-Hydroxyquinoline]

Outgoing:
1: 0.0473; 2: 77.1; 3: 17.1

Below is a list of molecules. For each, state its recorded chemical recovery into PDMS.
1. Cc1cc(O)cc(C)c1[S+](C)[O-] (centres undefined) [Methiocarb-sulfoxide phenol]
2. CCCN(CCC)c1c([N+](=O)[O-])cc(S(N)(=O)=O)cc1[N+](=O)[O-]

Outgoing:
1: 20.7; 2: 11.1

Below is a list of molecules. For each, state its recorded chemical recovery into PDMS.
1. CC(=O)[C@@]1(O)CC[C@H]2[C@@H]3CCC4=CC(=O)CC[C@]4(C)[C@H]3CC[C@@]21C [17alpha-Hydroxyprogesterone]
2. Cc1cccc(C)c1N(Cn1cccn1)C(=O)CCl
3. CCC(=O)OCC(=O)[C@@]1(OC(=O)CC)[C@@H](C)C[C@H]2[C@@H]3CCC4=CC(=O)C=C[C@]4(C)[C@@]3(F)[C@@H](O)C[C@@]21C [Betamethasone dipropionate]
4. C=CCC1=C(C)C(OC(=O)C2C(C=C(C)C)C2(C)C)CC1=O (centres undefined)
5. CCNc1nc(Cl)nc(NCC)n1
6. Nc1ccc(-c2ccc(N)c(Cl)c2)cc1Cl
7. CC(C)(C)NC(=O)[C@H]1CC[C@H]2[C@@H]3CC[C@H]4NC(=O)C=C[C@]4(C)[C@H]3CC[C@]12C [Finasteride]

Outgoing:
1. 13.1
2. 42.7
3. 45.4
4. 37.9
5. 38.6
6. 3.28
7. 38.5

* * *

- run description: chemical recovery by SPE of plasma after PDMS sampling; higher = better extraction
- condition context: pooled human plasma; extraction method: HLB SPE of plasma after PES; equilibration time (d): 1
Class boundaries, taken from values of chemical recovery by SPE of plasma, are as follows: class 1 (below 3%), class 2 (3% to below 30%), class 3 (30% or more)

compound: CCCOC(=O)c1ccc(O)cc1
discrete label: class 3
--
compound: Nc1ccc(/N=N/c2ccccc2)cc1
discrete label: class 2
--
compound: ClC1=C(Cl)C2(Cl)C3C4OC4C(Cl)C3C1(Cl)C2(Cl)Cl (configuration not stated) [Heptachlorepoxide]
discrete label: class 1
--
compound: Nc1cn[nH]c(=O)c1Cl
discrete label: class 1
--
compound: CC(=O)CCCCn1c(=O)c2c(ncn2C)n(C)c1=O
discrete label: class 3
--
compound: C[Si](Cn1cncn1)(c1ccc(F)cc1)c1ccc(F)cc1
discrete label: class 1

Incoming: Could you place Cc1cc(=O)oc2cc(N)ccc12 in its proper category? Many thanks.
Outgoing: class 3

Incoming: Could you place Nc1ccc(-c2ccc(N)c(Cl)c2)cc1Cl in its proper category? Many thanks.
Outgoing: class 2

Incoming: Could you place Cc1cc(Cl)ccc1OCC(=O)O in its proper category? Many thanks.
Outgoing: class 3

Incoming: Could you place CCOC(=O)C1=C(C)NC(C)=C(C(=O)OC)C1c1cccc([N+](=O)[O-])c1 (configuration not stated) in its proper category? Many thanks.
Outgoing: class 2

Incoming: Could you place CCN(CC)c1nc(C)cc(OP(=S)(OC)OC)n1 in its proper category? Many thanks.
Outgoing: class 1

* * *

- run description: chemical recovery by SPE of plasma after PDMS sampling; higher = better extraction
- condition context: pooled human plasma; extraction method: HLB SPE of plasma after PES; equilibration time (d): 1
So I've got a bunch of molecules here, and I need their chemical recovery by SPE of plasma values.
Answers are plain numbers, in %.

Example entries and their recorded answers appear below.
molecule: COC(=O)[C@H](c1ccccc1Cl)N1CCc2sccc2C1
parameter: chemical recovery by SPE of plasma
endpoint unit: %
numeric value: 0.677

molecule: CCCCOCCOCCOCc1cc2c(cc1CCC)OCO2 [Piperonyl butoxide]
parameter: chemical recovery by SPE of plasma
endpoint unit: %
numeric value: 0.249

Kindly consider the entry below.
// recorded chemical recovery by SPE of plasma for CC[C@H]1OC(=O)[C@H](C)[C@@H](O[C@H]2C[C@@](C)(OC)[C@@H](O)[C@H](C)O2)[C@H](C)[C@@H](O[C@@H]2O[C@H](C)C[C@H](N(C)C)[C@H]2O)[C@](C)(OC)C[C@@H](C)C(=O)[C@H](C)[C@@H](O)[C@]1(C)O : 22

* * *

- run description: chemical recovery from spiked human plasma; higher = better extraction
- condition context: pooled human plasma; extraction method: PES+SPE (3 d PDMS equilibration then HLB SPE)
chemical recovery of 40% or higher: yes (1). Under 40%: no (0).

Sample answers from the record:
compound: CCCCNc1ccc(C(=O)OCCN(C)C)cc1
discrete label: no (0)

compound: CC(C)(Oc1ccc(CCNC(=O)c2ccc(Cl)cc2)cc1)C(=O)O [Bezafibrate]
discrete label: yes (1)

Incoming: Quick check: does NC(=O)N1c2ccccc2C=Cc2cc(O)ccc21 [2-Hydroxycarbamazepine] have chemical recovery greater than or equal to 40%?
Outgoing: yes (1)

Incoming: Quick check: does COc1ccc2c(c1)c(CC(=O)O)c(C)n2C(=O)c1ccc(Cl)cc1 have chemical recovery greater than or equal to 40%?
Outgoing: no (0)

Incoming: Quick check: does CC(C)NCC(O)COc1ccc(CC(N)=O)cc1 (stereo not drawn) have chemical recovery greater than or equal to 40%?
Outgoing: no (0)

Incoming: Quick check: does Clc1ccc(Cl)c(-c2cc(Cl)ccc2Cl)c1 have chemical recovery greater than or equal to 40%?
Outgoing: yes (1)

Incoming: Quick check: does CCNc1ccc2c(C)cc(=O)oc2c1 [7-(Ethylamino)-4-methylcoumarin] have chemical recovery greater than or equal to 40%?
Outgoing: yes (1)

* * *

So I've got a bunch of molecules here, and I need their chemical recovery values.
- run description: chemical recovery from spiked human plasma; higher = better extraction
- condition context: pooled human plasma; extraction method: SPE only (HLB 96-well)
Numbers only, in %.

Example entries and their recorded answers appear below.
molecule: NC(=O)N1c2ccccc2CC(O)c2ccccc21 (centres undefined) [10,11-Dihydro-10-hydroxycarbamazepine]
chemical recovery, %: 49.1

molecule: CCCCNS(=O)(=O)c1ccccc1 [N-Butylbenzenesulfonamide]
chemical recovery, %: 48.7

molecule: O=C(Nc1ccc(F)cc1)c1cccc(Oc2cccc(C(F)(F)F)c2)n1
chemical recovery, %: 49.3

// recorded chemical recovery for Cc1cnc2ccc3c(nc(N)n3C)c2n1 [2-Amino-3,8-dimethylimidazo-[4,5-f]quinoxaline (MeIQx)] : 49.1

* * *

- run description: chemical recovery from spiked human plasma; higher = better extraction
- condition context: pooled human plasma; extraction method: SPE only (HLB 96-well), PES comparison experiment
parameter: chemical recovery

Example entries and their recorded answers appear below.
compound: COC(=O)Nc1nc2ccccc2[nH]1
chemical recovery: 51.3%

compound: NC(=O)/N=C1\SCCN1Cc1ccc(Cl)nc1 [Thiacloprid amide]
chemical recovery: 51.2%

compound: CCc1cccc(C)c1N(C(=O)C(=O)O)C(C)C(=O)O (stereo not given)
chemical recovery: 41%

compound: CCCCc1nc(Cl)c(CO)n1Cc1ccc(-c2ccccc2-c2nnn[nH]2)cc1
chemical recovery: 40.8%

Kindly consider the entry below.
// recorded chemical recovery for CCCCCCCCCCCCCCN(C)C : 39.3%

* * *

- run description: chemical recovery by SPE of plasma after PDMS sampling; higher = better extraction
- condition context: pooled human plasma; extraction method: HLB SPE of plasma after PES; equilibration time (d): 6
Class boundaries, taken from values of chemical recovery by SPE of plasma, are as follows: lo: < 3%; med: ≥ 3% and < 20%; hi: ≥ 20%

Sample answers from the record:
molecule: Cn1ncc(N)c(Cl)c1=O
discrete label: hi
--
molecule: CCCCCCCCn1sccc1=O
discrete label: lo
--
molecule: Cc1ccc(S(N)(=O)=O)cc1 [p-Toluenesulfonamide]
discrete label: hi
--
molecule: NC(=O)c1ccc(N)cc1 [4-Aminobenzamide]
discrete label: med
--
molecule: Cc1cc(=O)oc2cc(N)ccc12
discrete label: hi
--
molecule: Nc1cn[nH]c(=O)c1Cl
discrete label: med
--
molecule: COCCCC/C(=N\OCCN)c1ccc(C(F)(F)F)cc1
discrete label: lo
--
molecule: N#C/N=C1\SCCN1Cc1ccc(Cl)nc1
discrete label: hi
--
molecule: CN(C)c1nc(=O)n(C2CCCCC2)c(=O)n1C
discrete label: hi

Now take the following molecule into account.
Incoming: Could you place CC(CCl)OP(=O)(OC(C)CCl)OC(C)CCl (stereo unspecified) [Tris(1-chloro-2-propyl)phosphate] in its proper category? Many thanks.
Outgoing: med
